target: CDK9 (Homo sapiens, UniProt P50750); construct: endogenous in cells; host or cells: MDA-MB-231; assay: CDK protein degradation activity (Western blotting), CDK9; assay type: cell-based; settings: MDA-MB-231 cells, 1 μM, 16 hours, Western blot
Sequence (P50750 whole entry): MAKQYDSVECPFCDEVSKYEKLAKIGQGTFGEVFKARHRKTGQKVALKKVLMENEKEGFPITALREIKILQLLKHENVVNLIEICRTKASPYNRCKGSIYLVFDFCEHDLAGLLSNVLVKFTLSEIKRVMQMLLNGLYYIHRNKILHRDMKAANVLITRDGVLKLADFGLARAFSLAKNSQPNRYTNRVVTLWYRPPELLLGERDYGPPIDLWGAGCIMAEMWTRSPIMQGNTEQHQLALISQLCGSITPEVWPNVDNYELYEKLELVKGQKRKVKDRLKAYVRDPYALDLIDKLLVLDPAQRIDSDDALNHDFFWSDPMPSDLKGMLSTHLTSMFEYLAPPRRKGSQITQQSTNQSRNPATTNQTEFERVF
readout-label: Enzyme degradation CDK9 (% remaining) @ 1 μM (%)

A: O=C1CC[C@H](N2C(=O)c3ccc(N4CCC(CCCN5CCN(c6ccc(Nc7ncnc8c7ncn8C7CC(NC(=O)Cc8ccccc8)C7)cc6)CC5)CC4)cc3C2=O)C(=O)N1 (stereo partly drawn) [Compound 262]
B: Cc1cccc(C(=O)NC2CC(n3cnc4c(NCc5cccc(N6CCN(c7cccc8c7C(=O)N([C@H]7CCC(=O)NC7=O)C8=O)CC6)c5)ncnc43)C2)n1 (stereo partly drawn) [Compound 126]
Prompt line: Select one. Lower Enzyme degradation CDK9 (% remaining) @ 1 μM: A or B To answer, give the label that identifies your chosen option.
Response line: A
(A: 30%, B: 70%)

###

target: CDK9 (Homo sapiens); construct: endogenous in cells; host or cells: MDA-MB-231; experiment: CDK protein degradation activity (Western blotting), CDK9; format: cell-based; settings: MDA-MB-231 cells, 1 μM, 16 hours, Western blot
Some molecules, each annotated with its measured Enzyme degradation CDK9 (% remaining) @ 1 μM.

A selection of reference data follows.
O=C1CC[C@H](N2C(=O)c3ccc(N4CC(C(=O)N5CCC(CCN6CCN(c7ccc(Nc8ncnc9c8ncn9C8CC(NC(=O)Cc9ccccc9)C8)cc7)CC6)CC5)C4)cc3C2=O)C(=O)N1 (stereo partly drawn) [Compound 328] : 0/0/0%
O=C1CCC(N2C(=O)c3ccc(NCC(=O)N4CCC(CN5CCC(CNc6ncnc7c6ncn7[C@H]6C[C@@H](NC(=O)c7c(Cl)cccc7Cl)C6)CC5)CC4)cc3C2=O)C(=O)N1 (stereo partly drawn) [Compound 171] : 0/0/0%

API: the following record is the query input.
Prompt line: // map O=C1CC[C@H](N2C(=O)c3ccc(N4CCN(CCCC5CCN(c6ccc(Nc7ncnc8c7ncn8C7CC(NC(=O)Cc8ccccc8)C7)cc6)CC5)CC4)cc3C2=O)C(=O)N1 (stereo partly drawn) [Compound 347] to recorded Enzyme degradation CDK9 (% remaining) @ 1 μM (system: CDK9 (Homo sapiens))
Response line: 0%

###

target: CDK2 (Homo sapiens); construct: endogenous in cells; host or cells: MDA-MB-231; assay: CDK protein degradation activity (Western blotting), CDK2; assay type: cell-based; settings: MDA-MB-231 cells, 10 μM, 16 hours, Western blot
readout-label: Enzyme degradation CDK2 (% remaining) @ 10 μM (%)

Cc1cccc(C(=O)NC2CC(n3cnc4c(NC5CCN(CCOC6CCN(C(=O)CNc7cccc8c7C(=O)N([C@H]7CCC(=O)NC7=O)C8=O)CC6)CC5)ncnc43)C2)n1 (some centres unmarked) [Compound 46] : 100
Cc1cccc(C(=O)NC2CC(n3cnc4c(NCCC5CCN(CC6CCN(C(=O)C7CN(c8ccc9c(c8)C(=O)N([C@H]8CCC(=O)NC8=O)C9=O)C7)CC6)CC5)ncnc43)C2)n1 (some centres unmarked) [Compound 309] : 100

###

biological target: CDK2 (Homo sapiens); construct: endogenous in cells; host or cells: MDA-MB-231; assay: CDK protein degradation activity (Western blotting), CDK2; format: cell-based; conditions: MDA-MB-231 cells, 1 μM, 16 hours, Western blot
readout-label: Enzyme degradation CDK2 (% remaining) @ 1 μM

A selection of reference data follows.
O=C1CC[C@H](N2C(=O)c3ccc(N4CCC(CN5CCC(c6ccc(Nc7ncnc8c7ncn8[C@H]7C[C@@H](NC(=O)Cc8ccccc8)C7)cc6)CC5)CC4)cc3C2=O)C(=O)N1 : 10/10/10%
O=C1CC[C@H](N2C(=O)c3ccc(N4CC(C(=O)N5CCC6(CC5)CC(N5CCN(c7ccc(Nc8ncnc9c8ncn9C8CC(NC(=O)c9c(Cl)cccc9Cl)C8)cc7)CC5)C6)C4)cc3C2=O)C(=O)N1 (stereo partly shown) : 40/40/40%
Cc1cccc(C(=O)N[C@H]2C[C@@H](n3cnc4c(NCCC5CCN(CC6CCN(C(=O)C7CCN(c8cc9c(cc8F)C(=O)N(C8CCC(=O)NC8=O)C9=O)CC7)CC6)CC5)ncnc43)C2)n1 (stereo partly shown) : 50/50/50%

API: the following record is the query input.
Prompt line: For the molecule `Cc1cccc(C(=O)N[C@H]2C[C@@H](n3cnc4c(Nc5ccc(N6CCN(CC7CCN(C(=O)C8CN(c9ccc%10c(c9)C(=O)N([C@H]9CCC(=O)NC9=O)C%10=O)C8)CC7)CC6)cc5C)ncnc43)C2)n1` , what Enzyme degradation CDK2 (% remaining) @ 1 μM is on record?
Response line: 70/70/70%
